The following compounds are listed with their measured Kd values.
Biological target: WDR5 (Homo sapiens (Human))
Assay: Surface Plasmon Resonance (SPR) assay, KD and residence time
Type: binding
Details: surface plasmon resonance (SPR); read-out: WDR5 binding affinity (KD)

Previously resolved entries follow.
C[C@@H]1CN(c2cc(F)c(-c3ccc(N4CCOCC4)c(F)c3)cc2NC(=O)c2c[nH]c(=O)cc2C(F)F)C[C@H](C)N1C    1.39 nM
C[C@@H]1CN(c2ncc(-c3cc(NC(=O)c4cn(C)c(=O)cc4C(F)F)c(N4C[C@@H](C)N(C)[C@@H](C)C4)cc3F)cn2)CCO1    4.93 nM

Let us examine a further case.
INPUT: What reported Kd corresponds to "C[C@@H]1CN(c2cc(F)c(-c3ccc(N4CCNCC4)cc3)cc2NC(=O)c2c[nH]c(=O)cc2C(F)(F)F)C[C@H](C)N1C" on WDR5 (Homo sapiens (Human))?
OUTPUT: 0.8 nM

----------
Biological target: WDR5 (Homo sapiens (Human), UniProt P61964)
Assay: Surface Plasmon Resonance (SPR) assay, KD and residence time
Assay type: binding
Conditions: surface plasmon resonance (SPR); read-out: WDR5 binding affinity (KD)
measuredQuantity: pKd
Just so you know, pKd here is -log10 of the concentration in molar units; reply with that number alone.

C[C@@H]1CN(c2cc(F)c(-c3ccnc(C#N)n3)cc2NC(=O)c2c[nH]c(=O)cc2C(F)(F)F)C[C@H](C)N1C    8.59
C[C@@H]1CN(c2cc(F)c(-c3ccc(S(C)(=O)=O)nc3)cc2NC(=O)c2c[nH]c(=O)cc2C(F)(F)F)C[C@H](C)N1C    9.11

INPUT: Could you tell me which pKd is on file for "C[C@@H]1CN(c2cc(F)c(-c3ccc(C(N)=O)c(F)c3)cc2NC(=O)c2c[nH]c(=O)cc2C(F)F)C[C@H](C)N1C" ?
OUTPUT: 9.00

----------
Biological target: WDR5 (Homo sapiens (Human))
Assay: Surface Plasmon Resonance (SPR) assay, KD and residence time
Type: binding
Conditions: surface plasmon resonance (SPR) assay; read-out: WDR5 binding affinity (KD)
The following molecules are listed with their measured Kd values.
Please report the result as a number followed by the unit.

Previously resolved entries follow.
CC1CN(c2cc(F)c(-c3ccc(OCC4CC4)nc3)cc2NC(=O)c2c[nH]c(=O)cc2C(F)(F)F)CCN1C (stereo in doubt)    0.666 nM
C[C@@H]1CN(c2cc(F)c(C3CCN(C(=O)CC(C)(C)C)CC3)cc2NC(=O)c2c[nH]c(=O)cc2C(F)(F)F)C[C@H](C)N1C    11.8 nM

Let us examine a further case.
INPUT: Could you tell me which Kd is on file for "C[C@@H]1CN(c2cc(F)c(C3=CCCN(c4ncc(F)cn4)C3)cc2NC(=O)c2c[nH]c(=O)cc2C(F)(F)F)C[C@H](C)N1C" ?
OUTPUT: 1.3 nM

----------
The following compounds are listed with their measured pKd values.
Target: WDR5 (Homo sapiens (Human), UniProt P61964)
Test: Surface Plasmon Resonance (SPR) assay, KD and residence time
Assay type: binding
Settings: surface plasmon resonance (SPR); read-out: WDR5 binding affinity (KD)
Just so you know, pKd here is -log10 of the concentration in molar units; reply with that number alone.

Previously resolved entries follow.
CC1CN(c2cc(F)c(-c3cnc(N4CCOCC4)nc3)cc2NC(=O)c2c[nH]c(=O)cc2C(F)F)CCN1C (stereo in doubt)    9.08
CC1CN(c2cc(F)c(-c3ccnc(N4CCOCC4)n3)cc2NC(=O)c2c[nH]c(=O)cc2C(F)(F)F)CCN1C (stereo in doubt)    8.96
CC(C)OC(=O)N1CC=C(c2cc(NC(=O)c3c[nH]c(=O)cc3C(F)(F)F)c(N3C[C@@H](C)N(C)[C@@H](C)C3)cc2F)C1    9.11
C[C@@H]1CN(c2cc(F)c(-c3cnc(N4CCOCC4)s3)cc2NC(=O)c2cn(C)c(=O)cc2C(F)F)C[C@H](C)N1C    8.25
C[C@@H]1CN(c2ccc(-c3cc(NC(=O)c4c[nH]c(=O)cc4C(F)(F)F)c(N4CCN(C)[C@H](C)C4)cc3F)cn2)CCO1 (stereo in doubt)    8.55
CC1CN(c2cc(F)c(-c3ccnc(N4C[C@@H](C)O[C@@H](C)C4)n3)cc2NC(=O)c2ccc(F)cc2C(F)(F)F)CCN1C (stereo in doubt)    8.52

INPUT: Could you tell me which pKd is on file for "C[C@@H]1CN(c2cc(F)c(-c3cnc(N4CCN(C5CC5)CC4)nc3)cc2NC(=O)c2ccc(F)cc2C(F)(F)F)C[C@H](C)N1C" ?
OUTPUT: 8.39

INPUT: Could you tell me which pKd is on file for CC(C)OC(=O)N1CC=C(c2cc(NC(=O)c3c[nH]c(=O)cc3C(F)F)c(N3CCN(C)C(C)C3)cc2F)CC1 (stereo in doubt) ?
OUTPUT: 8.55

INPUT: Could you tell me which pKd is on file for "C[C@@H]1COCCN1c1ncc(-c2cc(NC(=O)c3c[nH]c(=O)cc3C(F)(F)F)c(N3CCN(C)[C@@H](C)C3)cc2F)cn1" ?
OUTPUT: 8.64

INPUT: Could you tell me which pKd is on file for "C[C@@H]1CN(c2cc(F)c(C3=CCN(C(=O)c4cnccn4)C3)cc2NC(=O)c2c[nH]c(=O)cc2C(F)(F)F)C[C@H](C)N1C" ?
OUTPUT: 8.44

INPUT: Could you tell me which pKd is on file for "C[C@@H]1CN(c2cc(F)c(-c3csc(N4CCOCC4)n3)cc2NC(=O)c2c[nH]c(=O)cc2C(F)(F)F)C[C@H](C)N1C" ?
OUTPUT: 9.13

INPUT: Could you tell me which pKd is on file for "C[C@@H]1CN(c2cc(F)c(C3=CCN(c4ncc(CN5CCOCC5)cn4)CC3)cc2NC(=O)c2c[nH]c(=O)cc2C(F)(F)F)C[C@H](C)N1C" ?
OUTPUT: 9.34

----------
Target: WDR5 (Homo sapiens (Human), UniProt P61964)
Experiment: Surface Plasmon Resonance (SPR) assay, KD and residence time
Format: binding
Conditions: surface plasmon resonance (SPR) assay; read-out: WDR5 binding affinity (KD)
The following compounds are listed with their measured log10 Kd values.
Please note: log10 values; quantity Kd; unit nM.

Previously resolved entries follow.
CCC(C)N1CC=C(c2cc(NC(=O)c3c[nH]c(=O)cc3C(F)(F)F)c(N3C[C@@H](C)N(C)[C@@H](C)C3)cc2F)CC1 (stereo partly drawn)    0.59
C[C@@H]1CN(c2cc(F)c(C3=CCN(C(=O)OC(C)(C)C)C3)cc2NC(=O)c2c[nH]c(=O)cc2C(F)(F)F)C[C@H](C)N1C    0.39
C[C@@H]1CN(c2cc(F)c(C3CCNCC3)cc2NC(=O)c2c[nH]c(=O)cc2C(F)(F)F)C[C@H](C)N1C    1.49
C[C@@H]1CN(c2cc(F)c(-c3ccc(OCC4CC4)nc3)cc2NC(=O)c2c[nH]c(=O)cc2C(F)F)C[C@H](C)N1C    0.22

INPUT: Could you tell me which log10 Kd is on file for CC1CN(c2cc(F)c(-c3cnc(N4CCOCC4)nc3)cc2NC(=O)c2cc(Cl)cc(Cl)c2)CCN1C (stereo in doubt) ?
OUTPUT: 0.99

INPUT: Could you tell me which log10 Kd is on file for "C[C@@H]1CN(c2cc(F)c(-c3cnc(N4CCOCC4)nc3)cc2NC(=O)c2cccc(N(C)C)c2)C[C@H](C)N1C" ?
OUTPUT: 3.54

----------
Biological target: WDR5 (Homo sapiens (Human))
Experiment: Surface Plasmon Resonance (SPR) assay, KD and residence time
Type: binding
Conditions: surface plasmon resonance (SPR) assay; read-out: WDR5 binding affinity (KD)
pKd: −log10 of the molar value.
# thresholds on pKd define classes: Low (below 8), Mid (8 to below 9), High (9 or more)

Cc1cc(-c2cc(NC(=O)c3c[nH]c(=O)cc3C(F)(F)F)c(N3C[C@@H](C)N(C)[C@@H](C)C3)cc2F)cnc1N1CCOCC1    Mid
CC1CN(c2cc(F)c(-c3cnc(N4CCN(C)CC4)nc3)cc2NC(=O)c2cn(C)c(=O)cc2C(F)(F)F)CCN1C (stereo in doubt)    Mid
COCCOc1ccc(-c2cc(NC(=O)c3c[nH]c(=O)cc3C(F)(F)F)c(N3C[C@@H](C)N(C)[C@@H](C)C3)cc2F)cc1    High

INPUT: Bin this entry: "C[C@@H]1CN(c2ncc(-c3cc(NC(=O)c4ccc(F)cc4C(F)(F)F)c(N4C[C@@H](C)N(C)[C@@H](C)C4)cc3F)cn2)C[C@H](C)N1C"
OUTPUT: High

INPUT: Bin this entry: "Cc1cnc(N2CC=C(c3cc(NC(=O)c4c[nH]c(=O)cc4C(F)(F)F)c(N4C[C@@H](C)N(C)[C@@H](C)C4)cc3F)CC2)nc1"
OUTPUT: High
